Exercise: state measured MCV for each of the compounds provided.
# Organism: Rattus norvegicus
# protocol notes: Open TG-GATES - Regimen: Single
# Format: toxicity, organism-based, Sprague-Dawley
# Design: regimen Single, gender Male, age 6 weeks
# condition context: in vivo, po, 0 mg/kg, 3 h, tissue Blood, route gavage, dose level Control
// return numeric value only (unit: fL, not printed)

Q) Need MCV, item CC(CCc1ccccc1)NCC(O)c1ccc(O)c(C(N)=O)c1 (configuration not stated)
A) 63.6

Q) Need MCV, item "O=C(O)COc1nn(Cc2ccccc2)c2ccccc12"
A) 65.1

Q) Need MCV, item CC(=O)N1CCN(c2ccc(OCC3COC(Cn4ccnc4)(c4ccc(Cl)cc4Cl)O3)cc2)CC1 (configuration not stated)
A) 64.4

Q) Need MCV, item CC(C)Cc1ccc(C(C)C(=O)O)cc1 (configuration not stated)
A) 62.7

Q) Need MCV, item "CC(=O)Nc1ccc2c(c1)Cc1ccccc1-2"
A) 62.4

Q) Need MCV, item "CCN(CC)N=O"
A) 63

Q) Need MCV, item "CC[C@@H](CO)NCCN[C@@H](CC)CO"
A) 66.2

###

# Species: Rattus norvegicus
# protocol notes: Open TG-GATES - Regimen: Single
# Type: toxicity, organism-based, Sprague-Dawley
# Parameters: regimen Single, gender Male, age 6 weeks
# condition context: in vivo, po, 0 mg/kg, 3 h, tissue Plasma, route gavage, dose level Control
Exercise: state measured K for each of the molecules provided.
// return numeric value only (unit: meq/L, not printed)

Q) Need K, item "CC[C@@H](CO)NCCN[C@@H](CC)CO"
A) 4.1

Q) Need K, item CC(CCc1ccccc1)NCC(O)c1ccc(O)c(C(N)=O)c1 (stereo unspecified)
A) 3.8

Q) Need K, item "O=C(O)COc1nn(Cc2ccccc2)c2ccccc12"
A) 4.5

Q) Need K, item CC(C)Cc1ccc(C(C)C(=O)O)cc1 (stereo unspecified)
A) 4

Q) Need K, item "CC(=O)Nc1ccc2c(c1)Cc1ccccc1-2"
A) 4

Q) Need K, item "CCN(CC)N=O"
A) 3.5

###

# Species: Rattus norvegicus
# protocol notes: Open TG-GATES - Regimen: Single
# Format: toxicity, organism-based, Sprague-Dawley
# Design: regimen Single, gender Male, age 6 weeks
# condition context: in vivo, po, 0 mg/kg, 6 h, tissue Plasma, route gavage, dose level Control
AST strictly under 70 IU/L means Met; at 70 IU/L or over means Not met.

Q) Find out if reported AST for CC(C)Cc1ccc(C(C)C(=O)O)cc1 (configuration not stated) [IBUPROFEN] is less than 70 IU/L
A) Not met

Q) Find out if reported AST for CCN(CC)N=O [N-NITROSODIETHYLAMINE] is less than 70 IU/L
A) Not met

Q) Find out if reported AST for CC(CCc1ccccc1)NCC(O)c1ccc(O)c(C(N)=O)c1 (configuration not stated) [LABETALOL] is less than 70 IU/L
A) Not met

Q) Find out if reported AST for O=C(O)COc1nn(Cc2ccccc2)c2ccccc12 [BENDAZAC] is less than 70 IU/L
A) Met

Q) Find out if reported AST for CC[C@@H](CO)NCCN[C@@H](CC)CO [ETHAMBUTOL] is less than 70 IU/L
A) Met

###

Exercise: state measured TERMINAL_BW for each of the compounds provided.
# Species on record: Rattus norvegicus
# protocol notes: Open TG-GATES - Regimen: Daily Repeat
# Type: toxicity, organism-based, Sprague-Dawley
# Design: regimen Daily Repeat, gender Male, age 6 weeks
# condition context: in vivo, po, 0 mg/kg, […], route gavage, dose level Control, time 28 day
// return numeric value only (unit: g, not printed)

Q) Need TERMINAL_BW, item "O=C(O)COc1nn(Cc2ccccc2)c2ccccc12"
A) 399.8

Q) Need TERMINAL_BW, item CC(C)Cc1ccc(C(C)C(=O)O)cc1 (stereo not drawn)
A) 398.5

Q) Need TERMINAL_BW, item CC(=O)N1CCN(c2ccc(OCC3COC(Cn4ccnc4)(c4ccc(Cl)cc4Cl)O3)cc2)CC1 (stereo not drawn)
A) 376.7

Q) Need TERMINAL_BW, item "CC[C@@H](CO)NCCN[C@@H](CC)CO"
A) 391.8

Q) Need TERMINAL_BW, item "CC(=O)Nc1ccc2c(c1)Cc1ccccc1-2"
A) 417

Q) Need TERMINAL_BW, item "CCN(CC)N=O"
A) 396.4

Q) Need TERMINAL_BW, item CC(CCc1ccccc1)NCC(O)c1ccc(O)c(C(N)=O)c1 (stereo not drawn)
A) 418.9

Q) Need TERMINAL_BW, item CC(N)=O [ACETAMIDE]
A) 415.6

###

# Species: Rattus norvegicus
# protocol notes: Open TG-GATES - Regimen: Single
# Assay type: toxicity, organism-based, Sprague-Dawley
# Design: regimen Single, gender Male, age 6 weeks
# condition context: in vivo, po, 0 mg/kg, 24 h, tissue Plasma, route gavage, dose level Control
Exercise: state measured Cl for each of the molecules provided.
// return numeric value only (unit: meq/L, not printed)

Q) Need Cl, item CC(=O)Nc1ccc2c(c1)Cc1ccccc1-2 [2-ACETYLAMINOFLUORENE]
A) 103.8

Q) Need Cl, item CCN(CC)N=O [N-NITROSODIETHYLAMINE]
A) 103.6

Q) Need Cl, item O=C(O)COc1nn(Cc2ccccc2)c2ccccc12 [BENDAZAC]
A) 104.6

Q) Need Cl, item CC(=O)N1CCN(c2ccc(OCC3COC(Cn4ccnc4)(c4ccc(Cl)cc4Cl)O3)cc2)CC1 (stereo not given) [KETOCONAZOLE]
A) 107.2

Q) Need Cl, item CC[C@@H](CO)NCCN[C@@H](CC)CO [ETHAMBUTOL]
A) 106.8

###

# Species: Rattus norvegicus
# protocol notes: Open TG-GATES - Regimen: Daily Repeat
# Assay type: toxicity, organism-based, Sprague-Dawley
# Set-up: regimen Daily Repeat, gender Male, age 6 weeks
# condition context: in vivo, po, 0 mg/kg, […], tissue Plasma, route gavage, dose level Control, time 14 day
Exercise: state measured Na for each of the molecules provided.
// return numeric value only (unit: meq/L, not printed)

Q) Need Na, item CC(N)=O [ACETAMIDE]
A) 141.6

Q) Need Na, item CC(CCc1ccccc1)NCC(O)c1ccc(O)c(C(N)=O)c1 (stereo not drawn)
A) 144.6

Q) Need Na, item "O=C(O)COc1nn(Cc2ccccc2)c2ccccc12"
A) 141.2

Q) Need Na, item CC(=O)N1CCN(c2ccc(OCC3COC(Cn4ccnc4)(c4ccc(Cl)cc4Cl)O3)cc2)CC1 (stereo not drawn)
A) 142.4

Q) Need Na, item "CCN(CC)N=O"
A) 141.6

Q) Need Na, item "CC(=O)Nc1ccc2c(c1)Cc1ccccc1-2"
A) 141.6

Q) Need Na, item CC(C)Cc1ccc(C(C)C(=O)O)cc1 (stereo not drawn)
A) 140.6

Q) Need Na, item "CC[C@@H](CO)NCCN[C@@H](CC)CO"
A) 141.6

###

# Organism: Rattus norvegicus
# protocol notes: Open TG-GATES - Regimen: Daily Repeat
# Type: toxicity, organism-based, Sprague-Dawley
# Design: regimen Daily Repeat, gender Male, age 6 weeks
# condition context: in vivo, po, 0 mg/kg, […], tissue Blood, route gavage, dose level Control, time 28 day
APTT strictly under 20 s means 1 (yes); at 20 s or over means 0 (no).

Q) Find out if reported APTT for CCN(CC)N=O [N-NITROSODIETHYLAMINE] is less than 20 s
A) 0 (no)

Q) Find out if reported APTT for CC(=O)Nc1ccc2c(c1)Cc1ccccc1-2 [2-ACETYLAMINOFLUORENE] is less than 20 s
A) 0 (no)

Q) Find out if reported APTT for CC[C@@H](CO)NCCN[C@@H](CC)CO [ETHAMBUTOL] is less than 20 s
A) 0 (no)

Q) Find out if reported APTT for O=C(O)COc1nn(Cc2ccccc2)c2ccccc12 [BENDAZAC] is less than 20 s
A) 1 (yes)

Q) Find out if reported APTT for CC(CCc1ccccc1)NCC(O)c1ccc(O)c(C(N)=O)c1 (stereo unspecified) [LABETALOL] is less than 20 s
A) 1 (yes)

Q) Find out if reported APTT for CC(C)Cc1ccc(C(C)C(=O)O)cc1 (stereo unspecified) [IBUPROFEN] is less than 20 s
A) 0 (no)

###

# Organism: Rattus norvegicus
# protocol notes: Open TG-GATES - Regimen: Single
# Type: toxicity, organism-based, Sprague-Dawley
# Set-up: regimen Single, gender Male, age 6 weeks
# condition context: in vivo, po, 0 mg/kg, 9 h, tissue Liver, route gavage, dose level Control
Exercise: state measured LIVER for each of the compounds provided.
// return numeric value only (unit: g, not printed)

Q) Need LIVER, item CCN(CC)N=O [N-NITROSODIETHYLAMINE]
A) 10.1

Q) Need LIVER, item CC(C)Cc1ccc(C(C)C(=O)O)cc1 (configuration not stated) [IBUPROFEN]
A) 8.2

Q) Need LIVER, item CC(=O)Nc1ccc2c(c1)Cc1ccccc1-2 [2-ACETYLAMINOFLUORENE]
A) 9.2

Q) Need LIVER, item CC[C@@H](CO)NCCN[C@@H](CC)CO [ETHAMBUTOL]
A) 9.3

Q) Need LIVER, item CC(=O)N1CCN(c2ccc(OCC3COC(Cn4ccnc4)(c4ccc(Cl)cc4Cl)O3)cc2)CC1 (configuration not stated) [KETOCONAZOLE]
A) 8.6

Q) Need LIVER, item CC(CCc1ccccc1)NCC(O)c1ccc(O)c(C(N)=O)c1 (configuration not stated) [LABETALOL]
A) 8.8

Q) Need LIVER, item O=C(O)COc1nn(Cc2ccccc2)c2ccccc12 [BENDAZAC]
A) 9
